Overview of reported Amount ecovered across a group of compounds:
# assay-method-text: Stability in washing liquor (washing conditions, OMO Progress base), HPLC
# Assay type: physicochemical
# applied-conditions: washing liquor stirred one hour at room temperature, extraction, HPLC
readout-name: Amount ecovered (mg)

compound	readout-name	endpoint-result
CCCCCCOC(C)OCC(=O)c1ccc(OC)cc1 (stereo not shown)	Amount ecovered	25.7
CCCCCCOC(C)OCC(=O)c1cc2c(cc1C)C(C)(C)C(C)CC2(C)C (stereo not shown)	Amount ecovered	22.2
COc1ccc(C(=O)COC(C)OCCc2ccccc2)cc1 (stereo not shown)	Amount ecovered	18.5
COc1ccc(C(=O)COC(C)OCCC(C)CC(C)(C)C)cc1 (stereo not shown)	Amount ecovered	23.5
CC/C=C\CCOC(C)OCC(=O)c1cc2c(cc1C)C(C)(C)C(C)CC2(C)C (stereo not shown)	Amount ecovered	20.0
CC/C=C\CCOC(C)OCC(=O)c1ccc(OC)cc1 (stereo not shown)	Amount ecovered	22.3
COc1ccc(C(=O)COC(C)OCCCc2ccccc2)cc1 (stereo not shown)	Amount ecovered	20.8

###

Consider the following compounds and their measured Amounts recovered: Water readings.
# assay-method-text: Hand washing tests: partition between water and fabric (substantivity), HPLC
# Format: physicochemical
# applied-conditions: extract of aqueous washing liquor after hand washing
readout-name: Amounts recovered: Water (mg)

compound	reading-unit	endpoint-result
COc1ccc(C(=O)COC(C)OCCc2ccccc2)cc1 (stereo not shown)	mg	15
COc1ccc(C(=O)COC(C)OCCC(C)CC(C)(C)C)cc1 (stereo not shown)	mg	17.5
CC/C=C\CCOC(C)OCC(=O)c1ccc(OC)cc1 (stereo not shown)	mg	13.3
CCCCCCOC(C)OCC(=O)c1ccc(OC)cc1 (stereo not shown)	mg	18.4
CC/C=C\CCOC(C)OCC(=O)c1cc2c(cc1C)C(C)(C)C(C)CC2(C)C (stereo not shown)	mg	15.3
COc1ccc(C(=O)COC(C)OCCCc2ccccc2)cc1 (stereo not shown)	mg	14.5
CCCCCCOC(C)OCC(=O)c1cc2c(cc1C)C(C)(C)C(C)CC2(C)C (stereo not shown)	mg	16.3

###

# assay-method-text: Stability tests in aqueous buffer solutions
# Type: physicochemical
# applied-conditions: aqueous buffer pH 2.5, 24 h at 37° C.

compound	Stability at pH 2.5
CC/C=C\CCOC(C)OCC(=O)c1ccc(OC)cc1 (stereo not drawn)	unstable
CCOC(C)OCC(=O)c1ccc(OC)cc1 (stereo not drawn)	unstable

###

# assay-method-text: Photolysis of phenacyl acetals (I) in solution, mercury lamp, GC-FID
# Assay type: physicochemical
# Design: key: 0: no cleavage; +: slow cleavage; ++: medium cleavage; +++: fast cleavage
# applied-conditions: solution (ethanol), mercury lamp 150 W, Pyrex, one hour irradiation
readout-name: UV-test (release of aryl ketone (II) and ester (III), cleavage)

molecule	endpoint-result
CC/C=C\CCOC(C)OCC(=O)c1cc2c(cc1C)C(C)(C)C(C)CC2(C)C (stereo not shown)	+++
CC(C)=CCCC(C)CCOC(C)OCC(=O)c1ccc2ccccc2c1 (stereo not shown)	+
CCOC(C)OCC(=O)c1cc2c(cc1C)C(C)(C)C(C)CC2(C)C (stereo not shown)	+++
COc1ccc(C(=O)COC(Cc2ccccc2)OC)cc1 (stereo not shown)	++
COc1ccc(C(=O)COC(C)OCCC(C)CCC=C(C)C)cc1 (stereo not shown)	++
CCCCCCOC(C)OCC(=O)c1ccc(OC)cc1 (stereo not shown)	++
CCOC(C)OCC(=O)c1ccc(OC)cc1 (stereo not shown)	++
COc1ccc(C(=O)COC(C)OCCc2ccccc2)cc1 (stereo not shown)	++
COc1ccc(C(=O)COC(C)OCCC(C)CC(C)(C)C)cc1 (stereo not shown)	++
CC/C=C\CCOC(C)OCC(=O)c1ccc(OC)cc1 (stereo not shown)	++

###

# assay-method-text: Hand washing tests: partition between water and fabric (substantivity), HPLC
# Type: physicochemical
# applied-conditions: extract of dried towels after hand washing
readout-name: Amounts recovered: Towel extract

compound	readout-name	endpoint-result
CC/C=C\CCOC(C)OCC(=O)c1cc2c(cc1C)C(C)(C)C(C)CC2(C)C (stereo not shown)	Amounts recovered: Towel extract	10.3 mg
CC/C=C\CCOC(C)OCC(=O)c1ccc(OC)cc1 (stereo not shown)	Amounts recovered: Towel extract	14 mg
COc1ccc(C(=O)COC(C)OCCCc2ccccc2)cc1 (stereo not shown)	Amounts recovered: Towel extract	17 mg
CCCCCCOC(C)OCC(=O)c1cc2c(cc1C)C(C)(C)C(C)CC2(C)C (stereo not shown)	Amounts recovered: Towel extract	8.7 mg
COc1ccc(C(=O)COC(C)OCCc2ccccc2)cc1 (stereo not shown)	Amounts recovered: Towel extract	10.5 mg
COc1ccc(C(=O)COC(C)OCCC(C)CC(C)(C)C)cc1 (stereo not shown)	Amounts recovered: Towel extract	8.9 mg
CCCCCCOC(C)OCC(=O)c1ccc(OC)cc1 (stereo not shown)	Amounts recovered: Towel extract	11.7 mg

###

Listed compounds paired with reported Amounts recovered: Water, % (±10%)
# assay-method-text: Hand washing tests: partition between water and fabric (substantivity), HPLC
# Type: physicochemical
# applied-conditions: extract of aqueous washing liquor; of amount incorporated
readout-name: Amounts recovered: Water, % (±10%)

compound	reading-unit	endpoint-result
COc1ccc(C(=O)COC(C)OCCC(C)CC(C)(C)C)cc1 (stereo not shown) [compound 4]	%	75
COc1ccc(C(=O)COC(C)OCCCc2ccccc2)cc1 (stereo not shown) [compound 6]	%	65
CC/C=C\CCOC(C)OCC(=O)c1ccc(OC)cc1 (stereo not shown) [compound 3]	%	59
CCCCCCOC(C)OCC(=O)c1cc2c(cc1C)C(C)(C)C(C)CC2(C)C (stereo not shown) [compound 8]	%	69
CC/C=C\CCOC(C)OCC(=O)c1cc2c(cc1C)C(C)(C)C(C)CC2(C)C (stereo not shown) [compound 9]	%	67
CCCCCCOC(C)OCC(=O)c1ccc(OC)cc1 (stereo not shown) [compound 5]	%	73
COc1ccc(C(=O)COC(C)OCCc2ccccc2)cc1 (stereo not shown) [compound 2]	%	63

###

// values below are reported Recovered
# assay-method-text: Stability in washing liquor (washing conditions, OMO Progress base), HPLC
# Format: physicochemical
# applied-conditions: washing liquor stirred one hour at room temperature; relative to amount incorporated

molecule	Recovered / %
CCCCCCOC(C)OCC(=O)c1cc2c(cc1C)C(C)(C)C(C)CC2(C)C (stereo not shown) [compound 8]	99
CC/C=C\CCOC(C)OCC(=O)c1ccc(OC)cc1 (stereo not shown) [compound 3]	100
CC/C=C\CCOC(C)OCC(=O)c1cc2c(cc1C)C(C)(C)C(C)CC2(C)C (stereo not shown) [compound 9]	96
COc1ccc(C(=O)COC(C)OCCCc2ccccc2)cc1 (stereo not shown) [compound 6]	94
COc1ccc(C(=O)COC(C)OCCc2ccccc2)cc1 (stereo not shown) [compound 2]	83
CCCCCCOC(C)OCC(=O)c1ccc(OC)cc1 (stereo not shown) [compound 5]	100
COc1ccc(C(=O)COC(C)OCCC(C)CC(C)(C)C)cc1 (stereo not shown) [compound 4]	100

###

# assay-method-text: Hand washing tests: partition between water and fabric (substantivity), HPLC
# Assay type: physicochemical
# applied-conditions: extract of dried towels; of amount incorporated
readout-name: Amounts recovered: Towel extract, % (±10%)

molecule	endpoint-result
CCCCCCOC(C)OCC(=O)c1ccc(OC)cc1 (stereo not shown)	46
COc1ccc(C(=O)COC(C)OCCCc2ccccc2)cc1 (stereo not shown)	47
CC/C=C\CCOC(C)OCC(=O)c1cc2c(cc1C)C(C)(C)C(C)CC2(C)C (stereo not shown)	45
CCCCCCOC(C)OCC(=O)c1cc2c(cc1C)C(C)(C)C(C)CC2(C)C (stereo not shown)	42
CC/C=C\CCOC(C)OCC(=O)c1ccc(OC)cc1 (stereo not shown)	62
COc1ccc(C(=O)COC(C)OCCC(C)CC(C)(C)C)cc1 (stereo not shown)	38
COc1ccc(C(=O)COC(C)OCCc2ccccc2)cc1 (stereo not shown)	44

###

# assay-method-text: Stability tests in aqueous buffer solutions
# Format: physicochemical
# applied-conditions: aqueous buffer pH 2.5, 24 h at 37° C.
readout-name: Stability at pH 2.5

compound	readout-name	endpoint-result
CCCCCCOC(C)OCC(=O)c1ccc(OC)cc1 (centres unmarked) [compound 5]	Stability at pH 2.5	unstable
COc1ccc(C(=O)COC(C)OCCC(C)CC(C)(C)C)cc1 (centres unmarked) [compound 4]	Stability at pH 2.5	unstable
COc1ccc(C(=O)COC(C)OCCc2ccccc2)cc1 (centres unmarked) [compound 2]	Stability at pH 2.5	unstable
COc1ccc(C(=O)COC(C)OCCCc2ccccc2)cc1 (centres unmarked) [compound 6]	Stability at pH 2.5	unstable

###

# assay-method-text: Photolysis of phenacyl acetals (I) in solution, mercury lamp, GC-FID
# Type: physicochemical
# Set-up: key: 0: no cleavage; +: slow cleavage; ++: medium cleavage; +++: fast cleavage
# applied-conditions: solution (ethanol), mercury lamp 150 W, Pyrex, one hour irradiation
readout-name: UV-test (release of aryl ketone (II) and ester (III), cleavage)

compound	endpoint-result
COc1ccc(C(=O)COC(C)OCCCc2ccccc2)cc1 (stereo not drawn)	++
CCCCCCOC(C)OCC(=O)c1ccc2ccccc2c1 (stereo not drawn)	+
CCCCCCOC(C)OCC(=O)c1cc2c(cc1C)C(C)(C)C(C)CC2(C)C (stereo not drawn)	+++

These entries and their values trace back to patent US6492563B2.
